# Tested on: Phosphorylation of ERK1/2 in MIA PaCa-2 cells
# assay.comment: Phospho-ERK1/2 MSD Assay
# Format: cell-based
# test.settings: Homo sapiens, MIA PaCa-2, read-out: pERK IC50 (4 h); 4 h compound treatment; MiaPaCa-2 cells
# Procedure: For compounds in Table 9, the following assay conditions were employed: Phospho-ERK1/2 MSD Assay: Sixteen hours prior to compound treatment, MIA PaCa-2 cells were seeded in 96-well cell culture plates at a density of 25,000 cells/well and incubated at 37° C., 5% CO2. […] Assay plates were read on a Meso Scale Discovery Sector Imager 6000, and data were analyzed using a 4-parameter logistic model to calculate IC50 values.
Note to self: IC50 under 10 µM means YES, ties and anything higher get NO.

{"columns": ["compound", "assayed.target", "classification"],
 "data": [
  ["C=CC(=O)N1CC(NC(=O)Cn2c(C(=O)NCc3ccccc3CN(C)C)cc3cc(Br)ccc32)C1 [Example 88]", "Phosphorylation of ERK1/2 in MIA PaCa-2 cells", "NO"],
  ["C=CC(=O)N1CC(NC(=O)Cn2cc(-c3ccc(F)cc3F)c3cc(Br)ccc32)C1 [Example 137]", "Phosphorylation of ERK1/2 in MIA PaCa-2 cells", "NO"],
  ["C=CC(=O)N1CC(NC(=O)Cn2c3c(c4cc(Br)ccc42)CCCC3)C1 [Example 160]", "Phosphorylation of ERK1/2 in MIA PaCa-2 cells", "NO"],
  ["C=CC(=O)N1CC(NC(=O)Cn2c(C)c(-c3ccccc3N3CCOCC3)c3cc(Cl)ccc32)C1 [Example 49]", "Phosphorylation of ERK1/2 in MIA PaCa-2 cells", "YES"],
  ["C=CC(=O)N1CC(NC(=O)Cn2c(C(=O)OC)c(I)c3cc(Br)ccc32)C1 [Example 111]", "Phosphorylation of ERK1/2 in MIA PaCa-2 cells", "NO"],
  ["C=CC(=O)N1CC(NC(=O)Cn2c(C)c(-c3cnccc3C(C)C)c3cc(Cl)ccc32)C1 [Example 5-1]", "Phosphorylation of ERK1/2 in MIA PaCa-2 cells", "YES"],
  ["C=CC(=O)N1CC(NC(=O)Cn2c3ccc(Br)cc3c3ccc(Oc4cccnc4)nc32)C1 [Example 55]", "Phosphorylation of ERK1/2 in MIA PaCa-2 cells", "YES"],
  ["C=CC(=O)N1CC(NC(=O)Cn2cc(Cl)c3cc(Br)ccc32)C1 [Example 154]", "Phosphorylation of ERK1/2 in MIA PaCa-2 cells", "NO"],
  ["C=CC(=O)N1CC(NC(=O)Cn2cc(-c3ccccc3C)c3cc(Cl)ccc32)C1 [Example 78]", "Phosphorylation of ERK1/2 in MIA PaCa-2 cells", "NO"],
  ["C=CC(=O)N1CC(NC(=O)Cn2cc(CNCc3ccccc3)c3cc(Br)ccc32)C1 [Example 136]", "Phosphorylation of ERK1/2 in MIA PaCa-2 cells", "NO"],
  ["C=CC(=O)N1CC(NC(=O)Cn2cc(I)c3ccc(-c4ccccc4Cl)cc32)C1 [Example 150]", "Phosphorylation of ERK1/2 in MIA PaCa-2 cells", "NO"],
  ["C=CC(=O)N1CC(NC(=O)Cn2c3c(c4cc(Br)ccc42)CN(C(=O)OCc2ccccc2)CC3)C1 [Example 141]", "Phosphorylation of ERK1/2 in MIA PaCa-2 cells", "NO"],
  ["C=CC(=O)N1CC(NC(=O)Cn2c(C)c(-c3ccccc3OC(C)C)c3cc(Cl)ccc32)C1 [Example 113]", "Phosphorylation of ERK1/2 in MIA PaCa-2 cells", "NO"],
  ["C=CC(=O)N1CC(NC(=O)Cn2c(C)c(-c3ccccc3Cc3ccccc3)c3cc(Cl)ccc32)C1 [Example 56]", "Phosphorylation of ERK1/2 in MIA PaCa-2 cells", "YES"],
  ["C=CC(=O)N1CC(N(C)C(=O)Cn2cc(I)c3cc(I)ccc32)C1 [Example 66]", "Phosphorylation of ERK1/2 in MIA PaCa-2 cells", "YES"],
  ["C=CC(=O)N1CC(NC(=O)Cn2c(C)c(-c3ccccc3CN(C)C)c3cc(Cl)ccc32)C1 [Example 32]", "Phosphorylation of ERK1/2 in MIA PaCa-2 cells", "YES"],
  ["C=CC(=O)N1CC(N2CCC(n3cc(I)c4cc(Cl)ccc43)C2=O)C1 (centres unmarked) [Example 90]", "Phosphorylation of ERK1/2 in MIA PaCa-2 cells", "NO"],
  ["C=CC(=O)N1CC(NC(=O)Cn2c(C)c(-c3cnccc3C3CC3)c3cc(Cl)ccc32)C1 [Example 18]", "Phosphorylation of ERK1/2 in MIA PaCa-2 cells", "YES"],
  ["C=CC(=O)N1CC(NC(=O)Cn2ccc3cc(Cl)cc(Cl)c32)C1 [Example 165]", "Phosphorylation of ERK1/2 in MIA PaCa-2 cells", "NO"],
  ["C=CC(=O)N1CC(NC(=O)Cn2c3ccccc3c3cc(Br)ccc32)C1 [Example 71]", "Phosphorylation of ERK1/2 in MIA PaCa-2 cells", "NO"],
  ["C=CC(=O)N1CC(NC(=O)Cn2c(C(=O)NCc3ccccc3)cc3cc(Br)ccc32)C1 [Example 164]", "Phosphorylation of ERK1/2 in MIA PaCa-2 cells", "NO"],
  ["C=CC(=O)N1CC(NC(=O)Cn2cc(-c3cccc4ccccc34)c3cc(Br)cc(C)c32)C1 [Example 110]", "Phosphorylation of ERK1/2 in MIA PaCa-2 cells", "NO"],
  ["C=CC(=O)N1CC(NC(=O)C(C)(C)n2c(C)c(C(=O)N3CCc4c(cccc4OC)C3)c3cc(Cl)ccc32)C1 [Example 131]", "Phosphorylation of ERK1/2 in MIA PaCa-2 cells", "NO"],
  ["C=CC(=O)N1CC(NC(=O)Cn2c3ccc(Br)cc3c3c(Cl)ccnc32)C1 [Example 75]", "Phosphorylation of ERK1/2 in MIA PaCa-2 cells", "NO"],
  ["C=CC(=O)N1CC(NC(=O)Cn2cc(I)c3cc(Br)ccc32)C1 [Example 85]", "Phosphorylation of ERK1/2 in MIA PaCa-2 cells", "NO"],
  ["C=CC(=O)N1CC(NC(=O)Cn2cc(-c3c(C)ccc4cn[nH]c34)c3cc(Br)ccc32)C1 [Example 130]", "Phosphorylation of ERK1/2 in MIA PaCa-2 cells", "NO"],
  ["C=CC(=O)N1CC(NC(=O)Cn2c(C)c(-c3cccnc3OC(C)C)c3cc(Br)ccc32)C1 [Example 115]", "Phosphorylation of ERK1/2 in MIA PaCa-2 cells", "NO"],
  ["C=CC(=O)N1CC(NC(=O)Cn2cc(C3CC3)c3ccc(-c4ccccc4Cl)cc32)C1 [Example 146]", "Phosphorylation of ERK1/2 in MIA PaCa-2 cells", "NO"],
  ["C=CC(=O)N1CC(NC(=O)Cn2cc(-c3ccccc3-c3ccccc3)c3cc(Br)cc(C)c32)C1 [Example 62]", "Phosphorylation of ERK1/2 in MIA PaCa-2 cells", "YES"],
  ["C=CC(=O)N1CC(NC(=O)Cn2c(C)c(-c3cncnc3C3CC3)c3cc(Cl)ccc32)C1 [Example 30]", "Phosphorylation of ERK1/2 in MIA PaCa-2 cells", "YES"],
  ["C=CC(=O)N1CC(NC(=O)Cn2cc(CN3CCc4ccccc4C3)c3cc(Br)ccc32)C1 [Example 145]", "Phosphorylation of ERK1/2 in MIA PaCa-2 cells", "NO"],
  ["C=CC(=O)N1CC(NC(=O)Cn2cc(-c3c(O)cccc3F)c3cc(Cl)ccc32)C1 [Example 144]", "Phosphorylation of ERK1/2 in MIA PaCa-2 cells", "NO"]
]}
